Tested target: T1, Myo5, Q04439
T1 sequence (Q04439 1072-1160, looked up): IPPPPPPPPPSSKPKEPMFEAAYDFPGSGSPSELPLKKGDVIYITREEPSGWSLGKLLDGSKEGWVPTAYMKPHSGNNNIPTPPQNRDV
Protocol summary: SPOT array
Run parameters: median of control spots 471
Observed property: SPOT intensity
Form rule: numeric answer, no unit written next to it.

Record excerpt, results attached:
DAPASKPSVPPRNYF : 0
MFLISPPASPPPEFD : 219
YVRRRPRVRLEPLLS : 1
RKNRAPPQRPRFNRE : 5
GDHPKGPPPPPPPDE : 227

query: Would you mind telling me what SPOT intensity value was observed for LLGRKRPVMERVVDI ?
result: 6

query: Would you mind telling me what SPOT intensity value was observed for PPLPRAPPVPPATFE ?
result: 137

query: Would you mind telling me what SPOT intensity value was observed for IVNKPLPPLPVAGSS ?
result: 0

query: Would you mind telling me what SPOT intensity value was observed for SKIRPTPRKPSRMAT ?
result: 23

query: Would you mind telling me what SPOT intensity value was observed for VDFTLPPPPPPPGLD ?
result: 367

query: Would you mind telling me what SPOT intensity value was observed for QPQRTAPKPPISAPR ?
result: 230

query: Would you mind telling me what SPOT intensity value was observed for NNQRRKPLLLNIGDH ?
result: 0

query: Would you mind telling me what SPOT intensity value was observed for DKSRPPRPPPKPLHL ?
result: 44

query: Would you mind telling me what SPOT intensity value was observed for RSRRSSFAYPQQVAI ?
result: 0

query: Would you mind telling me what SPOT intensity value was observed for AAAPKHAPPPVPNET ?
result: 376
